Test: in vitro
Settings: human, Caco-2, PappAB, Mean
TEST READOUT: Papp A→B at 7200 sec (×10⁻⁶ cm/s)
Field: numeric (×10⁻⁶ cm/s). Do not append units.

Tell me the measured Papp A→B at 7200 sec of O=C(C1CCCCC1)N1CC(=O)N2CCc3ccccc3C2C1 (stereo not shown) , please.
63.8

* * *

Assay: in vitro
Details: human, Caco-2, PappAB, Mean
TEST READOUT: Papp A→B at 10800 sec (×10⁻⁶ cm/s)
Give the number; ×10⁻⁶ cm/s is assumed, so skip it.

Please give the measured Papp A→B at 10800 sec for this compound: O=C(C1CCCCC1)N1CC(=O)N2CCc3ccccc3C2C1 (stereo not shown)
57.7
